measured_target: Falcipain-2 (Plasmodium falciparum, UniProt Q8I6U4)
Sequence (Q8I6U4 244-484): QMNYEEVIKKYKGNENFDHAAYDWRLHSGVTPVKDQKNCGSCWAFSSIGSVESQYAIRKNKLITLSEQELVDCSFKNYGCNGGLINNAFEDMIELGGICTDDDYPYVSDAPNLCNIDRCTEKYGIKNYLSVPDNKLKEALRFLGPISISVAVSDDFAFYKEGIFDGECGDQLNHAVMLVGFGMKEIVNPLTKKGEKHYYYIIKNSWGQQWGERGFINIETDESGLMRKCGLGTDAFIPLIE
test_description: falcipain-2 enzymatic assay (fluorogenic substrate H-D-VLR-AFC, endpoint)
condition: parasitic recombinant enzyme, pH 5.5, quenched after 60 minutes
Counter-ions that a name gives are not always drawn.
So I've got a bunch of compounds here, and I need their IC50 values.

Give the reported IC50 for CN1CCN(Cc2ccc(-c3cncc(C(=O)NN(c4nc(C#N)nc5c4ncn5C)C4CCCC4)c3)cc2)CC1 [Example 27, trifluoroacetate] (system: Falcipain-2 (Plasmodium falciparum, UniProt Q8I6U4)).
≤ 1 nM

I'm curious: which IC50 was measured for CN1CCN(Cc2ccc(C(=O)NN(c3nc(C#N)nc4c3ncn4C)C3CCCC3)cc2)CC1 [Example 47, trifluoroacetate] tested on Falcipain-2 (Plasmodium falciparum, UniProt Q8I6U4)?
2.5 to 15 nM

Identify the measured IC50 of CN1CCN(Cc2ccc(C(=O)NN(CC3CCCC3)c3nc(C#N)nc4c3ncn4C)cc2)CC1 [Example 23, trifluoroacetate] for Falcipain-2 (Plasmodium falciparum, UniProt Q8I6U4).
2.5 to 15 nM

Give recorded IC50 with Falcipain-2 (Plasmodium falciparum, UniProt Q8I6U4) for the following compound: CN(C)C1CCN(C(=O)n2cnc3c(N(NC(=O)OC(C)(C)C)C4CCCC4)nc(C#N)nc32)CC1 [Example 48, trifluoroacetate]
1 to 2.5 nM
